- Experimental target: extracellular domains of PD-L1 (Homo sapiens, UniProt Q9NZQ7)
- Construct: specifically dimerize the extracellular domains of PD-L1
- Sequence (Q9NZQ7 19-238 limits assumed): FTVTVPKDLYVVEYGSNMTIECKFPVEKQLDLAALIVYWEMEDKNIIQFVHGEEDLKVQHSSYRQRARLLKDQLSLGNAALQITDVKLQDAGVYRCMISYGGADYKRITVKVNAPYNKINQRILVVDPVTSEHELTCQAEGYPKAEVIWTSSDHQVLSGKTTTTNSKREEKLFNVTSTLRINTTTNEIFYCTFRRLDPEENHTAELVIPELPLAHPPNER
- Assay procedure: PD-L1 Dimerization
- Cond: PD-L1-Eu and PD-L1-A2, ratio 665 nm/615 nm
pEC50: −log10 of the molar value.
Endpoint name: pEC50

Below are worked cases with known answers.
{"Molecule": "Cn1c(C[C@@H]2CCCN2)nn2cc(-c3cccc(-c4cccc(-c5cc6c(=O)n(C)c(C[C@@H]7CCCN7)nn6c5)c4Cl)c3Cl)cc2c1=O", "Experimental target": "extracellular domains of PD-L1 (Homo sapiens, UniProt Q9NZQ7)", "pEC50": "> 7.30"}
{"Molecule": "Cc1cn2cc(-c3cccc(-c4cccc(-c5cc6c(=O)n(CCN[C@@H](CO)C(=O)O)c(C)cn6c5)c4Cl)c3Cl)cc2c(=O)n1CCN[C@@H](CO)C(=O)O", "Experimental target": "extracellular domains of PD-L1 (Homo sapiens, UniProt Q9NZQ7)", "pEC50": "7.00 to 7.30"}
{"Molecule": "Cn1c(CN2CC[C@H](C(=O)O)C2)cn2cc(-c3cccc(-c4cccc(-c5cc6c(=O)n(C)c(CN7CC[C@H](C(=O)O)C7)cn6c5)c4Cl)c3Cl)cc2c1=O", "Experimental target": "extracellular domains of PD-L1 (Homo sapiens, UniProt Q9NZQ7)", "pEC50": "7.00 to 7.30"}
{"Molecule": "Cc1cn2nc(-c3cccc(-c4cccc(-c5cc6c(=O)n(CCN[C@H]7C[C@H](O)C7)c(C)cn6n5)c4Cl)c3Cl)cc2c(=O)n1CCN[C@H]1C[C@H](O)C1", "Experimental target": "extracellular domains of PD-L1 (Homo sapiens, UniProt Q9NZQ7)", "pEC50": "> 7.30"}

Okay, now this molecule:
Request: Lab note: need pEC50 for Cc1cn2nc(-c3cccc(-c4cccc(-c5cc6c(=O)n(CCN[C@](C)(CO)C(=O)O)c(C)cn6n5)c4Cl)c3Cl)cc2c(=O)n1CCN[C@](C)(CO)C(=O)O on extracellular domains of PD-L1 (Homo sapiens, UniProt Q9NZQ7), anyone have it?
Result: ≤ 7.00
